Assay: chemical genetic growth profiling, strain panel (AID 1159580);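 note: tested at 20 µM; growth read once vehicle control cultures reached saturation at 30 °C; 1 = growth at the plate median or of vehicle wells; lower values mean less growth of the strain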
Conditions: S. cerevisiae deletion strains, growth OD, locus YNL233W, strain BNI4, active compounds read low
In all, about 5,500 compounds went through this assay and about 2,000 (36%) were called active. Not shown: some 18% with an inconclusive outcome. The list shows a part of the results.
measured_endpoint: normalized growth

Problem: Quick check: normalized growth of "CC(C)[C@]12O[C@H]1[C@@H]1O[C@@]13[C@@]1(C)CCC4=C(COC4=O)[C@@H]1C[C@@H]1O[C@@]13C2=O" ?
Result: 1.04 (inactive)

Problem: Please give the result for CSc1ccc2c(c1)C(N1CCN(C)CC1)Cc1ccccc1S2 (centres undefined) too.
Result: 0.696 (active)

Problem: Please give the result for "COc1ccc(-c2cc(=O)c3cc(OC)ccc3o2)cc1" too.
Result: 0.914 (inactive)

Problem: Please give the result for "C[n+]1cc2c3c(ccc2c2ccc4cc5c(cc4c21)OCO5)OCO3" too.
Result: 0.0657 (active)

Problem: Please give the result for "O=c1oc2ccccc2c(O)c1Cc1c(O)c2ccccc2oc1=O" too.
Result: 1 (inactive)

Problem: Please give the result for "COc1c2c(cc3c1OCO3)CC[N+](C)=C2" too.
Result: 1.01 (inactive)

Problem: Please give the result for "O=c1c(-c2ccccc2)coc2cc(O)cc(O)c12" too.
Result: 0.792 (active)

Problem: Please give the result for C[C@@H]1CC[C@@]2(OC1)OC1C(O)C3C4CC[C@H]5C[C@H](O[C@@H]6O[C@H](CO)[C@H](O[C@@H]7O[C@H](CO)[C@@H](O)[C@H](O[C@@H]8OC[C@@H](O)[C@H](O)[C@H]8O)[C@H]7O[C@@H]7O[C@H](CO)[C@H](O)[C@H](O[C@@H]8O[C@H](CO)[C@@H](O)[C@H](O)[C@H]8O)[C@H]7O)[C@H](O)[C@H]6O)[C@H](O)C[C@]5(C)C4CC[C@]3(C)C1[C@@H]2C (some centres undefined) too.
Result: 0.0568 (active)

Problem: Please give the result for "Cc1coc2ccccc2c1=O" too.
Result: 0.995 (inactive)

====

Could you please report measured normalized growth for the items listed next?
Assay: chemical genetic growth profiling, strain panel (AID 1159580)
Conditions: S. cerevisiae deletion strains, growth OD, locus YNL128W, strain TEP1, active compounds read low
Among all 5,500 compounds or so, about 2,000 (36%) were called active. About 18% were inconclusive and are not listed. The list shows a part of the results.
Kindly provide the number alone.

Problem: Quick check: normalized growth of "O=C(N/N=C\c1ccccc1Cl)N/N=C\c1ccccc1Cl" ?
Result: 0.976

Problem: Please give the result for "CN1CCc2ccccc2Cc2[nH]c3ccccc3c2CC1" too.
Result: 1.01

Problem: Please give the result for "Cc1coc2ccccc2c1=O" too.
Result: 1.01

Problem: Please give the result for "CN1CNc2c(c(=O)n(C)c(=O)n2C)C1" too.
Result: 1

Problem: Please give the result for "O=c1oc2ccccc2c(O)c1Cc1c(O)c2ccccc2oc1=O" too.
Result: 0.998

====

Assay: chemical genetic growth profiling, strain panel (AID 1159580)
Settings: S. cerevisiae deletion strains, growth OD, locus YOR061W, strain CKA2, active compounds read low
The campaign covered roughly 5,500 compounds. About 2,000 (36%) were called active. Inconclusive results (about 18%) are left out. The list shows a part of the results.
Could you please report measured normalized growth for the items listed next?

Problem: Quick check: normalized growth of "COc1ccc(-c2cc(=O)c3ccccc3o2)cc1OC" ?
Result: 1.02 (inactive)

Problem: Please give the result for "CN(N=O)C(=O)N[C@@H]1[C@@H](O)[C@H](O)[C@@H](CO)O[C@@H]1O" too.
Result: 1.01 (inactive)

Problem: Please give the result for "CN1CCc2c(c3ccccc3n2Cc2ccccc2)C1" too.
Result: 0.977 (inactive)

====

Assay: chemical genetic growth profiling, strain panel (AID 1159580)
Conditions: S. cerevisiae deletion strains, growth OD, locus YLR113W, strain HOG1
Out of some 5,500 compounds screened, about 2,000 (36%) were called active. Inconclusive results (about 18%) are left out. Rule as the data show it: active = normalized growth mostly below about 0.91 (no sharp cut-off); inconclusive = no clear call, values can overlap the other calls; inactive = mostly above about 0.92. Some of the results follow.
Lab note: assign the record to one of y for active, n for inactive

Problem: What was the test verdict on CCC(C)Cn1c(Sc2ncc([N+](=O)[O-])s2)n[nH]c1=O (stereo not given) ?
Result: y

Problem: Please give the result for CC(C)(C)C(=O)C(Oc1ccc(Cl)cc1)n1cncn1 (stereo not given) too.
Result: y

Problem: Please give the result for "CC(C)c1ccc2c(c1O)CC[C@H]1C3=C(CC[C@]21C)C(=O)OC3" too.
Result: n

Problem: Please give the result for "COc1ccc(-c2cc(=O)c3c(OC(C)=O)cc(OC(C)=O)cc3o2)cc1" too.
Result: y

Problem: Please give the result for "CCN(CC)CCNC(=O)c1ccc(NC(C)=O)cc1" too.
Result: n

Problem: Please give the result for "CC(=O)Nc1ccc(OC(=O)c2ccccc2O)cc1" too.
Result: n

Problem: Please give the result for "Cc1csc2ncnc(N/N=C\c3ccccc3Cl)c12" too.
Result: n

Problem: Please give the result for "COc1cc2c3cc1Oc1cc(ccc1O)C[C@@H]1c4c(cc(OC)c(O)c4Oc4ccc(cc4)C[C@@H]3N(C)CC2)CC[N+]1(C)C" too.
Result: n

Problem: Please give the result for "O=C1c2ccccc2O[C@@H](c2ccccc2)[C@@H]1NCc1ccccc1" too.
Result: y

Problem: Please give the result for Cc1cc(C(=O)N(c2ccccc2)C(C)C2CC2)c(Cl)cc1Cl (stereo not given) too.
Result: y

====

Test: chemical genetic growth profiling, strain panel (AID 1159580);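 note: tested at 20 µM; growth read once vehicle control cultures reached saturation at 30 °C; 1 = growth at the plate median or of vehicle wells; lower values mean less growth of the strain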
Conditions: S. cerevisiae deletion strains, growth OD, locus YML070W, strain DAK1, active compounds read low
In all, about 5,500 compounds went through this assay and about 2,000 (36%) were called active. Inconclusive results (about 18%) are left out. The list shows a part of the results.
Could you please report measured normalized growth for the items listed next?
Kindly provide the number alone.

Problem: Quick check: normalized growth of "O=C1Nc2ccccc2/C1=N/N=C\c1ccccc1Cl" ?
Result: 0.897

Problem: Please give the result for "N#Cc1c(Br)cnn1Cc1cc(C(F)(F)F)cc(C(F)(F)F)c1" too.
Result: 0.884

Problem: Please give the result for "CC(C)(C)c1csc(NC(=O)c2ccc(Cl)cc2Cl)n1" too.
Result: 0.9

Problem: Please give the result for "O=C(NNC(=O)c1csc(-c2cccs2)n1)c1ccc(C(F)(F)F)cc1" too.
Result: 0.887

====

Test: chemical genetic growth profiling, strain panel (AID 1159580);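 note: tested at 20 µM; growth read once vehicle control cultures reached saturation at 30 °C; 1 = growth at the plate median or of vehicle wells; lower values mean less growth of the strain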
Details: S. cerevisiae deletion strains, growth OD, locus YDL005C, strain med2, active compounds read low
Hit rate of the full screen: of about 5,500 compounds, about 2,000 (36%) were called active. Roughly 18% stayed inconclusive and do not appear here. This is one part of the list.
measured_endpoint: normalized growth
Kindly provide the number alone.

Problem: Quick check: normalized growth of "O=c1c(-c2cc(O)c(O)c(O)c2)coc2cc(O)c(O)c(O)c12" ?
Result: 1.02

Problem: Please give the result for "COc1ccc(-c2cc(=O)c3cc(OC)ccc3o2)cc1" too.
Result: 0.949

Problem: Please give the result for "CC1=CCc2c(cc3oc(C)cc(=O)c3c2O)OC1" too.
Result: 1

Problem: Please give the result for C=C1C2CC[C@@]3(C)[C@H](c4ccoc4)OC(=O)C[C@]13O[C@H]1CC(=O)C(C)(C)[C@H](C(O)C(=O)OC)[C@@]21C (stereo partly specified) too.
Result: 0.989

Problem: Please give the result for "CC(=O)Oc1cc(-c2coc3cc(OC(C)=O)c(OC(C)=O)c(OC(C)=O)c3c2=O)cc(OC(C)=O)c1OC(C)=O" too.
Result: 0.985

Problem: Please give the result for "O=C(O)c1cn(-c2ccc(F)cc2)c2cc(N3CCNCC3)c(F)cc2c1=O" too.
Result: 0.985

====

Test: chemical genetic growth profiling, strain panel (AID 1159580);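 note: tested at 20 µM; growth read once vehicle control cultures reached saturation at 30 °C; 1 = growth at the plate median or of vehicle wells; lower values mean less growth of the strain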
Details: S. cerevisiae deletion strains, growth OD, locus YNR052C, strain pop2, active compounds read low
Screen size: about 5,500 compounds; about 2,000 (36%) were called active. Roughly 18% stayed inconclusive and do not appear here. Some of the results follow.
For each record, check the reported normalized growth: if it is below 1 write Condition met, else write Condition not met.

Problem: Does the reported normalized growth of "CC(C)c1ccc2c(c1O)CC[C@H]1C3=C(CC[C@]21C)C(=O)OC3" stay below 1?
Result: Condition met

Problem: Please give the result for C=C1C(N)CC2CC1C2(C)C (stereo not drawn) too.
Result: Condition not met

Problem: Please give the result for "COc1ccc(-c2cc(=O)c3ccccc3o2)cc1OC" too.
Result: Condition met

Problem: Please give the result for "CC(=O)Oc1c(-c2ccccc2)oc2c(CC=C(C)C)c3c(c(OC(C)=O)c2c1=O)C=CC(C)(C)O3" too.
Result: Condition not met

Problem: Please give the result for "ClC(Cl)=C(c1ccc(Cl)cc1)c1ccc(Cl)cc1" too.
Result: Condition met

Problem: Please give the result for "COc1ccc(-c2cc(=O)c3c(OC(C)=O)cc(OC(C)=O)cc3o2)cc1" too.
Result: Condition met
